Where these numbers come from: ChEMBL document CHEMBL1145350

# Test system: Radical scavenging activity
# Protocol description: Antioxidant activity assessed as ability to scavenge hydroxyl radicals by ABTS competition assay
# Type: functional
Measured quantity: pIC50
Entry type: numeric. Quantity: pIC50, the -log10 of concentration in molar units.

Documented pIC50 of Cc1c(C)c2c(c(C)c1O)CCC(C)(C(=O)O)O2 (configuration not stated) : 3.22
